Tested on: MDA-MB-231
Assay: NCI tumour cell line growth inhibition, 48 h
Activity calls are given as the source filed them. Rule as the data show it: active = GI50 up to about 1.1 µM and inactive = higher.
Answer with one of the outcomes T = active, F = inactive

Use the examples below as a reference point.
>>> labelvalue("CC(O)c1cc2c(s1)C(=O)c1ccsc1C2=O (stereo not drawn)")
"T"
>>> labelvalue("COC(=O)C1(Cc2ccccc2)Cc2ccccc2C1")
"F"
>>> labelvalue("CC(=O)O[C@H]1/C(=C/c2ccc(N(C)C)cc2)C[C@H]2[C@@H]3CC=C4C[C@@H](N5CCCC5)CC[C@]4(C)[C@H]3CC[C@]12C")
"F"
>>> labelvalue("CCC1c2[nH]c3ccccc3c2C[C@H]2C(=O)NC(C)C(=O)N12 (stereo partly drawn)")
"F"
>>> labelvalue("C=C1C[C@H](O)[C@H](Br)C(C)(C)C12CCC(C)(Cl)C(Br)C2 (stereo partly drawn)")
"F"

Query :: Look up the recorded call for COc1ccc(-n2c(CCC(=O)O)nc3c2C(=O)c2ccccc2C3=O)cc1 in this test.
Result :: F

Query :: Recorded call for CN(C)c1ccc(/C=C/c2cc(-c3ccccc3)[n+](C)n2-c2ccccc2)cc1 ?
Result :: T

Query :: // param item: O=[N+]([O-])c1c(O)c2nonc2c2nn(-c3ccccc3)nc12 ; yields the recorded call
Result :: F

Query :: What did this assay record as the result for COc1ccc(OC)c(-c2nc3n(c2/C=C2/C(=O)Nc4ccccc42)CCS3)c1 ?
Result :: F

Query :: What is the recorded call for this compound in the test? COc1cc2[nH]c(=O)[nH]c2c2c(C)c[nH]c12
Result :: F

Query :: I'd appreciate the recorded outcome for O=C(O)c1ccccc1/C=N\N=C1NCCCCN1 from this test.
Result :: F

Query :: Assay outcome for CCOc1nc(-c2ccccc2)cc(-c2ccc(N3CCOCC3)cc2)c1C#N : what was it?
Result :: F

Query :: What is the recorded call for this compound in the test? CC(C)(C)c1ccc(-c2nnc(-c3cc(C#N)cc(-c4nnc(-c5ccc(C(C)(C)C)cc5)o4)c3)o2)cc1
Result :: F

* * *

System: HOP-62
Assay: NCI tumour cell line growth inhibition, 48 h
Active and inactive are the calls of the source. Cut-off read from the data, not from the text of the source: active = GI50 up to about 1.1 µM and inactive = higher.
Mark one answer only. Choices: active, inactive

Consider the following illustrative entries.
>>> labelvalue("C[C@H]1CC[C@@H]2[C@@H](C)[C@H]3[C@H](C[C@H]4[C@@H]5CC=C6C[C@@H](O)CC[C@]6(C)[C@H]5CC[C@]34C)N2C1")
"inactive"
>>> labelvalue("Cc1ccc(C)n1-c1ccccc1C1C=CN(C(=O)OC(C)(C)C)C=C1")
"inactive"
>>> labelvalue("CC(=O)O[C@H]1/C(=C/c2ccc(N(C)C)cc2)C[C@H]2[C@@H]3CC=C4C[C@@H](N5CCCC5)CC[C@]4(C)[C@H]3CC[C@]12C")
"inactive"

Query :: What outcome does the record of this test show for C/C1=C/C2OC(=O)C3(C)C2C(CC2(C)OC1=CC2=O)OC3(O)C(C)C (centres undefined) ?
Result :: inactive

Query :: Which result was noted for this compound in the test: N#CC(c1nc2ccccc2s1)c1nc(Cl)ncc1Br (centres undefined)
Result :: inactive

* * *

Tested on: NCI-H460
Assay: NCI tumour cell line growth inhibition, 48 h
Calls of active or inactive are those of the source. Rule as the data show it: active = GI50 up to about 1.1 µM and inactive = higher.
propertyName: GI50

>>> observed("CCOC(=O)NC(=O)c1cn(CCN2CCN(C(=O)CNC(=O)CNC(=O)Cn3cc(C(=O)NC(=O)OCC)c(=O)[nH]c3=O)CC2)c(=O)[nH]c1=O")
"> 100 µM (inactive)"
>>> observed("O=c1n(-c2ccccc2)c(=O)n2n1C1C=CC2C2C(C1)C2(Cl)Cl (centres undefined)")
"> 100 µM (inactive)"
>>> observed("O=C1CCCCCCC2=C1C(Sc1ccccc1)CC2 (centres undefined)")
"27.2 µM (inactive)"

From here, focus on the item given below.
Sure, the documented GI50 for CCOC(=O)C1(Cc2c[nH]c3ccccc23)C(O)CCCN1C(C)=O (centres undefined) is > 100 µM (inactive)

* * *

Tested on: MOLT-4
Test: NCI tumour cell line growth inhibition, 48 h
Activity calls are given as the source filed them. Cut-off read from the data, not from the text of the source: active = GI50 up to about 1.1 µM and inactive = higher.
Give one outcome, nothing more. List: active, inactive

Answered cases to consult:
>>> labelvalue("COc1cc(OC)c(Oc2cccc(OC)c2OC)c(OC)c1")
"inactive"
>>> labelvalue("CC(C)c1c(O)c(O)c2c(c1O)C(=O)C(O)=C1C(C)(C)CCC[C@@]12C")
"inactive"
>>> labelvalue("O=C1c2cccnc2C(=O)c2c1nc1ccccc1c2-c1cncc(-c2c3c(nc4ccccc24)C(=O)c2cccnc2C3=O)c1")
"active"

Query :: Assay result, entry c1csc(-c2cc(-c3ccsc3)c(-c3cccs3)s2)c1 — outcome?
Result :: inactive

Query :: Assay result, entry O=C1CCCCCCC2=C1C(Sc1ccccc1)CC2 (stereo not given) — outcome?
Result :: inactive

* * *

Test system: Hs-578T
Assay: NCI tumour cell line growth inhibition, 48 h
The source made the active and inactive calls. Rule as the data show it: active = GI50 up to about 1.1 µM and inactive = higher.
Allowed answers: active, inactive

Examples from the recorded data:
>>> labelvalue("Cc1ccc(C)n1-c1ccccc1C1C=CN(C(=O)OC(C)(C)C)C=C1")
"inactive"
>>> labelvalue("CCOC(=O)c1nc2ccccc2nc1Oc1ccc(C(=O)OC)cc1")
"inactive"
>>> labelvalue("Nn1c(S)nnc1C12CC3CC(CC(C3)C1)C2")
"inactive"
>>> labelvalue("N=C(N)NS(=O)(=O)c1ccc(Nc2c3ccccc3nc3c(C(=O)NC(CO)(CO)CO)cccc23)cc1")
"inactive"

Next, consider the following compound.
Query :: Name the outcome recorded for CC(O)c1cc2c(s1)C(=O)c1ccsc1C2=O (stereo unspecified) in the assay.
Result :: active

* * *

Test system: ACHN
Assay: NCI tumour cell line growth inhibition, 48 h
Activity calls are given as the source filed them. No stated cut-off is given here; in the data, active = GI50 up to about 1.1 µM and inactive = higher.
propertyName: GI50

>>> observed("CCOC(=O)C(=O)Nc1ccc(Cl)cc1C")
"> 100 µM (inactive)"
>>> observed("CSC[S+]([O-])C[C@H](CO)NC(=O)/C=C/c1c(C)[nH]c(=O)[nH]c1=O (stereo not given in full)")
"1.48 µM (inactive)"
>>> observed("CC(O)CNC(=O)C(C)Oc1ccc(OCC2CCCCC2)cc1 (stereo not given)")
"> 100 µM (inactive)"
>>> observed("COc1cc(Oc2nc3ccc(C(F)(F)F)cc3nc2-c2ccccc2)cc(OC)c1OC")
"11.6 µM (inactive)"
>>> observed("CCCCSc1nsc(N(C(=O)c2ccccc2)C(=O)c2ccccc2)n1")
"49.1 µM (inactive)"
>>> observed("Clc1ccc(OCc2nnc(CCCCCCCCc3nnc(COc4ccc(Cl)cc4)n3Nc3ccccc3)n2Nc2ccccc2)cc1")
"1.16 µM (inactive)"
>>> observed("O=C1Cc2c([nH]c3ccc([N+](=O)[O-])cc23)-c2ccccc2N1")
"0.288 µM (active)"
>>> observed("C[N+]1([O-])[C@H]2CC(OC(=O)[C@H](CO)c3ccccc3)C[C@H]1[C@H]1O[C@H]12 (stereo not given in full)")
"> 100 µM (inactive)"
>>> observed("O=S(=O)(c1cnccc1N1CCN(CCO)CC1)N1CCCC1")
"> 100 µM (inactive)"

// next entry
GI50 value, target or system ACHN, for CCOC(=O)C(Cc1ccc(N(CCCl)CCCl)cc1)NC(=O)CCCN1C(=O)CN=C(c2ccccc2)c2cc(Cl)ccc21 (stereo not given) : 7.08 µM (inactive)

* * *

System: A498
Experiment: NCI tumour cell line growth inhibition, 48 h
Calls of active or inactive are those of the source. Rule as the data show it: active = GI50 up to about 1.1 µM and inactive = higher.
I would appreciate it if you answered using one of these outcomes: y for active, n for inactive

>>> labelvalue("CC(Oc1ccc2c(-c3ccc(Cl)cc3)cc(=O)oc2c1)C(=O)O (centres undefined)")
"n"
>>> labelvalue("O=C1c2cccnc2C(=O)c2c1nc1ccccc1c2-c1cncc(-c2c3c(nc4ccccc24)C(=O)c2cccnc2C3=O)c1")
"n"
>>> labelvalue("CC1(C)OC(=O)N(c2ccccc2)C12C=Cc1cc([N+](=O)[O-])cc([N+](=O)[O-])c1O2 (centres undefined)")
"n"
>>> labelvalue("Nc1ccc2c(SCc3ccc([N+](=O)[O-])cc3)c3ccccc3nc2c1")
"n"

Note: attention shifts to another entry.
Query :: Called result for O=C1CSC(c2cc3cc(Br)ccc3nc2Cl)N1c1ccc(F)c(Cl)c1 (centres undefined)
Result :: n

* * *

Test system: MCF7
Assay: NCI tumour cell line growth inhibition, 48 h
The source made the active and inactive calls. No stated cut-off is given here; in the data, active = GI50 up to about 1.1 µM and inactive = higher.
Permitted responses: yes (1) = active, no (0) = inactive

>>> labelvalue("C/C(=N\\Nc1nc2cc(Cl)ccc2s1)c1ccccn1")
"yes (1)"
>>> labelvalue("CCCCCCNC(=O)c1cc(CCc2cc(O)ccc2O)ccc1O")
"no (0)"
>>> labelvalue("COc1ccc2nc3c([N+](=O)[O-])ccc(NCCCN(C)C)c3c(N)c2c1")
"no (0)"
>>> labelvalue("CCOC(=O)C(Cc1ccc(N(CCCl)CCCl)cc1)NC(=O)CCCN1C(=O)CN=C(c2ccccc2)c2cc(Cl)ccc21 (stereo unspecified)")
"no (0)"
>>> labelvalue("COc1cc2c(cc1OCCCN1C(=O)c3cccc4cccc(c34)C1=O)N=C[C@@H]1CCCN1C2=O")
"no (0)"
>>> labelvalue("COC(=O)c1c(C)cccc1/C=C1\\Cc2cc(C)cc(C)c2C1=O")
"no (0)"
>>> labelvalue("O=C(O)c1cc(/N=N/c2ccc([As](=O)(O)O)cc2)ccc1O")
"no (0)"
>>> labelvalue("C=C1C(=O)OC2/C=C(\\CO)C3OC3C3OC3(C)CC(OC(=O)/C(=C/C)CO)C12 (stereo unspecified)")
"no (0)"

Query :: Query: recorded result category for O=[N+]([O-])c1ccc(/C=C/c2cc(-c3ccccc3)nc3ccc4ccccc4c23)cc1 in this test
Result :: no (0)

Query :: Identify the outcome logged in this assay for the compound shown: CC(O)c1cc2c(s1)C(=O)c1c(C(C)O)csc1C2=O (stereo unspecified)
Result :: yes (1)

Query :: What classification did O=C(CCN1CCCCC1)C(=Cc1ccccc1)C(=O)CCN1CCCCC1 end up with in this test?
Result :: no (0)

Query :: Would you mind telling me which call this test gave COC(=O)C1=NN2c3ccccc3C(=O)OCCC2(C)C1 (stereo unspecified) ?
Result :: no (0)

Query :: Query: recorded result category for CC(C)c1nc2c(Cl)c3ncccc3cc2[nH]c1=O in this test
Result :: no (0)

Query :: // param item: CCOC(=O)CCc1cc(=O)oc2cc(O)cc(O)c12 ; yields the recorded call
Result :: no (0)

Query :: Entry Cc1csc(NC23CC4CC(CC(C4)C2)C3)[n+]1C(P(=O)([O-])O)P(=O)(O)O (stereo unspecified) : call = ?
Result :: no (0)

Query :: Returns: the outcome recorded for Clc1ccc(-c2cc(-c3cc4cc(Br)ccc4nc3Cl)on2)cc1 in this assay.
Result :: no (0)

Query :: What classification did COc1ccc(/C=C/C(=O)c2cccc(C(=O)/C=C/c3ccc(OC)c(OC)c3)n2)cc1OC end up with in this test?
Result :: no (0)

Query :: // param item: COc1cc2c(cc1OC)[C@H](C)N1CCc3cc(OC)c(OC)cc3[C@@H]1C2 ; yields the recorded call
Result :: no (0)

Query :: Record lookup: outcome of this test for COc1cc(Oc2nc3ccc(C(F)(F)F)cc3nc2-c2ccccc2)cc(OC)c1OC ?
Result :: no (0)

Query :: Identify the outcome logged in this assay for the compound shown: Cc1ccc(NC(c2ccccc2)c2ccc3cccnc3c2O)cc1 (stereo unspecified)
Result :: no (0)

Query :: Called result for CCN(CC)C(=S)SC1CCOP(=O)(N(CCCl)CCCl)N1C (stereo unspecified)
Result :: no (0)
